- Tested on: M14 melanoma
- assay_comment: NCI-60 one-dose screen, 48 h
- test_conditions: 10 µM unless noted
This is part of a sample that, as a whole, favours compounds with a hit. Of some 83,000 tested, about 20% had one in any assay. Calls of active or inactive are those of the source. How the source made its calls: active means growth percent below 10; inactive means the rest.
Hi! Could you answer with just one of these? 1.0 (active), 0.0 (inactive)

Some entries whose results are on file:
O=C(COc1ccc(Cl)cc1Cl)N1N=C(c2ccc(Cl)cc2Cl)CC1(O)c1cc(F)c(Cl)cc1Cl (stereo unspecified)	0.0
CCc1c2cc(Cl)ccc2n2cc(Cc3ccccc3)[nH]c(=O)c12	0.0
CNC(=O)NN	0.0
CS(=O)(=O)OCC(COS(C)(=O)=O)C(c1ccccc1)c1ccccc1	0.0
COc1ccc(-c2c(C#N)cnc(N)c2-c2nc3cc(C)c(C)cc3[nH]2)cc1	0.0

Problem: Field: outcome | Entry: NCC(=O)NS(=O)(=O)OC[C@H]1O[C@@H](n2cnc3c(N)ncnc32)[C@H](O)[C@@H]1O
Result: 1.0

Problem: Field: outcome | Entry: COC1=C(OC)C(=O)C=CC1=O
Result: 0.0

Problem: Field: outcome | Entry: CC(=O)c1cc2c(c(O)c1C)C(=O)C(=O)c1c(O)cccc1-2
Result: 1.0

Problem: Field: outcome | Entry: COc1ccc(C2=NN(C(=O)COc3ccc(Cl)cc3)C(O)(c3cc(F)c(Cl)cc3Cl)C2)cc1 (stereo unspecified)
Result: 0.0

###

- Tested on: MDA-MB-435 melanoma
- assay_comment: NCI-60 one-dose screen, 48 h
- test_conditions: 10 µM unless noted
The panel holds about 83,000 compounds, 20% with a hit somewhere; the sample as a whole holds those more often. The source made the active and inactive calls. How the source made its calls: active means growth percent below 10; inactive means the rest.
Hi! Could you answer with just one of these? active, inactive

O=S(=O)(CCN1CCOCC1)Nc1cc(-c2ccc3ncnc(Nc4ccc(F)c(Cl)c4)c3c2)cnc1Cl	active

Problem: Field: outcome | Entry: O=C1C(Cl)=C(Nc2ccccc2)C(=O)C(Cl)=C1Nc1ccccc1
Result: inactive

Problem: Field: outcome | Entry: Nc1ncnc2c1ncn2C1OC(COC(c2ccccc2)(c2ccccc2)c2ccccc2)C(O)C1O (stereo not given)
Result: inactive

Problem: Field: outcome | Entry: CCOC(=O)C(C)(CSSCC(C)(NC(=O)c1ccc2ccccc2c1)C(=O)OCC)NC(=O)c1ccc2ccccc2c1 (stereo not given)
Result: inactive

Problem: Field: outcome | Entry: Cc1c(NC(=O)c2sc3nc4c(cc3c2N)CN(Cc2ccccc2)CC4)cccc1C(F)(F)F
Result: inactive

Problem: Field: outcome | Entry: O=C(Nc1ccc(F)cc1)Nc1ccc(Br)c(C(F)(F)F)c1
Result: active

###

- System: T-47D breast
- assay_comment: NCI-60 one-dose screen, 48 h (100 = growth as untreated, 0 = no growth, -100 = all killed)
- test_conditions: 10 µM unless noted
About 83,000 compounds went through this panel and 20% of them were active in at least one assay; those are over-represented in the sample as a whole. Active and inactive are the calls of the source. How the source made its calls: active means growth percent below 10; inactive means the rest.
parameter_measured: growth

CCC1CN2C(=N1)c1ccccc1-c1cc(Cl)ccc12 (stereo not given)	21.9% (inactive)
Cc1nssc1=S	105% (inactive)

For CCC(C)Nc1ccc(N)cc1 (stereo not given) on T-47D breast, measured growth was 16.2% (inactive)

For C=C(C)[C@@H]1C/C=C(\COC(=O)[C@H](OC(C)=O)C(NC(=O)c2ccccc2)c2ccccc2)CC[C@H]2O[C@]2(C)CC/C=C(\C)CC1 (stereo not given in full) on T-47D breast, measured growth was 68.7% [5 µM] (inactive)

For COc1cc2c(cc1OCCCCC(=O)Nc1ccc(-c3nc4ccccc4s3)cc1)N=C[C@@H]1CCCN1C2=O on T-47D breast, measured growth was 14.7% (inactive)

###

- Tested on: NCI-H322M lung
- assay_comment: NCI-60 one-dose screen, 48 h (100 = growth as untreated, 0 = no growth, -100 = all killed)
- test_conditions: 10 µM unless noted
Compounds without any hit were thinned out: in the full panel of roughly 83,000, 20% have a hit.
parameter_measured: growth (%)
Please respond with the number in % and leave the unit unwritten.

Study these solved cases before continuing.
COc1ccc(-c2ccc(NC(=O)Nc3cccc(C(F)(F)F)c3)c(C)n2)cc1	64.4
COc1cccc(C2CC(c3cc(OC)c(OC)c(OC)c3)=NN2)c1 (stereo unspecified)	99.6
Cc1cc[n+](CCCC[n+]2ccc(C)cc2)cc1	97.1
Cl[C@@H]1CCO[C@H](c2cc3ccccc3c3ccccc23)C1	94.6
S=c1ssnc1-c1ccccn1	66.5
Nc1ncnc2c1ccn2-c1cccc(NC(=O)c2cccc(C(F)(F)F)c2)c1	55.8

Could you now consider this next molecule?
# growth (molecule: S=c1n(CNc2ccc(Cl)nn2)nc(-c2cc(Cl)cc(Cl)c2Cl)n1/N=C/c1ccc(Cl)cc1 ) is 74.9

###

Recorded measurements of growth, one per entry
- System: MDA-MB-435 melanoma
- assay_comment: NCI-60 one-dose screen, 48 h (100 = growth as untreated, 0 = no growth, -100 = all killed)
- test_conditions: 10 µM unless noted
About 83,000 compounds went through this panel and 20% of them were active in at least one assay; those are over-represented in the sample as a whole.
Please respond with the number in % and leave the unit unwritten.

Study these solved cases before continuing.
CC(C)CNCC(=O)Nc1ccc(Cc2ccc(NC(=O)CNCC(C)C)cc2)cc1	88.5
COc1ccc2c(c1)OC(N)=C(C#N)C2c1ccc(F)c(F)c1 (centres undefined)	-18.6
Fc1cccc(F)c1C#Cc1ccc2cccnc2c1	107
COc1ccc2c(c1)/C(=C/c1c(-c3cc(OC)c(OC)c(OC)c3Br)nc3sccn13)C(=O)N2	93.2
O=C(Nc1ccc(-n2ccc3c(NC(=O)c4ccccc4)ncnc32)cc1)c1cccc(C(F)(F)F)c1	38.3

# growth (compound: NC(CSC(c1ccccc1)(c1ccccc1)c1ccc(F)cc1)C(=O)O (centres undefined) ) is -47.1

# growth (compound: CCOC(=O)CSc1nnc(-c2cc3c([nH]c4ccccc43)c(-c3cccc(O)c3)n2)n1-c1ccc(C)cc1 ) is 16.4

# growth (compound: COc1ccc(SC2c3ccc(O)cc3Oc3nc(N)c(C#N)c(N)c32)cc1 (centres undefined) ) is 87

###

- Test system: A549/ATCC NSCLC
- assay_comment: NCI-60 one-dose screen, 48 h (100 = growth as untreated, 0 = no growth, -100 = all killed)
- test_conditions: 10 µM unless noted
This is part of a sample that, as a whole, favours compounds with a hit. Of some 83,000 tested, about 20% had one in any assay.
parameter_measured: growth (%)
Please respond with the number in % and leave the unit unwritten.

CCCC(=O)Oc1ccc(/C(=C(\C)c2ccc(OC)cc2)c2ccc(OCCN3CCCCC3)cc2)cc1	76.8
C[C@]12CC[C@@H]3c4ccc(O)c(N)c4CC[C@H]3[C@@H]1CC[C@@H]2O	99.9
COc1ccc(-c2nn(-c3ccc(NC(=O)Nc4cc(C(F)(F)F)cc(C(F)(F)F)c4)cc3)cc2-c2ccncc2)cc1Cl	14.6
Cc1nccc2c3ccc(OCc4cn(Cc5ccc(Br)cc5)nn4)cc3n(CCCc3ccccc3)c12	82.6

Could you now consider this next compound?
# growth (compound: CC(NCCC(c1ccccc1)c1ccccc1)c1ccccc1 (stereo not given) ) is 80.7

###

- System: M14 melanoma
- assay_comment: NCI-60 one-dose screen, 48 h
- test_conditions: 10 µM unless noted
This is part of a sample that, as a whole, favours compounds with a hit. Of some 83,000 tested, about 20% had one in any assay. The source made the active and inactive calls. The calls were made as follows: active = growth percent below 10; inactive = the rest.
Hi! Could you answer with just one of these? active, inactive

COc1ccc(-c2ccc(NC(=O)Nc3cccc(C(F)(F)F)c3)c(C)n2)cc1	inactive

Problem: Field: outcome | Entry: NC(N)=N/N=C/c1ccc([N+](=O)[O-])cc1
Result: inactive

Problem: Field: outcome | Entry: CCOc1ccccc1C(=O)N1CCN(c2cc(Cl)cc(Cl)c2)CC1
Result: active

Problem: Field: outcome | Entry: N#Cc1c2c(c(N)[nH]c1=O)C(=O)NC2(O)c1ccccc1 (centres undefined)
Result: inactive

Problem: Field: outcome | Entry: O=C(N/N=C1\SCC(=O)N1c1ccccc1)c1cc(-c2cc3ccccc3o2)nn1-c1ccccc1
Result: inactive

Problem: Field: outcome | Entry: CCN(CC)CCN1C(=O)c2c(c3c4ccccc4[nH]c3c3[nH]c4ccccc4c23)C1=O
Result: inactive

Problem: Field: outcome | Entry: O=C(O)c1cn(C2CC2)c2cc(N3CCN(C(=O)CSc4nc(NS(=O)(=O)c5ccccc5)cc(=O)[nH]4)CC3)c(F)cc2c1=O
Result: inactive

Problem: Field: outcome | Entry: COc1cc(-c2nc(N)n(CC(=O)Nc3ccc(/C(C)=N\O)cc3)n2)cc(OC)c1OC
Result: inactive

Problem: Field: outcome | Entry: COc1ccc(Cl)cc1NC(=O)c1cc2c(n1C)-c1nc(NC(=O)C(C)C)sc1CC2
Result: inactive
